system.tested: Protein deacetylase HDAC6 (Homo sapiens, UniProt Q9UBN7)
Sequence (Q9UBN7 whole entry): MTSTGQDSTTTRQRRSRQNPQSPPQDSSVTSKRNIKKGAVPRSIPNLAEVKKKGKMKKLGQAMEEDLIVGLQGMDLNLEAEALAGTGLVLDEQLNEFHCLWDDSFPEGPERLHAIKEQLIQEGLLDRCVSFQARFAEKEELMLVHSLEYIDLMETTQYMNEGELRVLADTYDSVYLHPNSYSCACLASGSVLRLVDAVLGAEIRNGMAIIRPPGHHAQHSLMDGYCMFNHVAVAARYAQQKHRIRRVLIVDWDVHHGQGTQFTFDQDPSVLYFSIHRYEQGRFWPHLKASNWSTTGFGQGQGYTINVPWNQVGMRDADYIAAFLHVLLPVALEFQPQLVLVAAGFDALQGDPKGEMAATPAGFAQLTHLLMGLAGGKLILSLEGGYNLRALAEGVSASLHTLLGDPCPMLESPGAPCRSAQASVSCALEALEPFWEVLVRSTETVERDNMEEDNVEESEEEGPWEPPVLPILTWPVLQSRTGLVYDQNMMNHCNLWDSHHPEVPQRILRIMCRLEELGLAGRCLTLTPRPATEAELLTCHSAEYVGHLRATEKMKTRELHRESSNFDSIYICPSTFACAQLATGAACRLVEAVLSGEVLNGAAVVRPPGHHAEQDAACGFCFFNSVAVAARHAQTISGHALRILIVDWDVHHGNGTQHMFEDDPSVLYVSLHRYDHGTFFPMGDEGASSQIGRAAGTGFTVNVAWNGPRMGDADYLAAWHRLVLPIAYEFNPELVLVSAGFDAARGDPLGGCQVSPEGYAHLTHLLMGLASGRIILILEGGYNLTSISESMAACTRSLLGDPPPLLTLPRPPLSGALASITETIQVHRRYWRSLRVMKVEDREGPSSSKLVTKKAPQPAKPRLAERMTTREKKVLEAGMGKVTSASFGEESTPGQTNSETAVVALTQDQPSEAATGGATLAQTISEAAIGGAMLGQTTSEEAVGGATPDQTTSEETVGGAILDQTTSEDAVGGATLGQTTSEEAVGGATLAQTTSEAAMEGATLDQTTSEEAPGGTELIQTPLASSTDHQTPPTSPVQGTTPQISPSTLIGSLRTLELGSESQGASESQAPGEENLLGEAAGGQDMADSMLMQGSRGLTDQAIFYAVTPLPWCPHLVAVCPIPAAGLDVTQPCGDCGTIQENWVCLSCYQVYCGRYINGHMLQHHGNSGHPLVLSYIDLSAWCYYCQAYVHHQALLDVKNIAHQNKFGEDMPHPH
test.description: Inhibition of HDAC6 in human HeLa cells using Fluor-de-Lys as substrate after 15 mins by fluorescence assay
pIC50: −log10 of the molar value.
Reported pIC50 is given for each of the following compounds.

compound.string	pIC50
CCc1c2c(nc3ccc(OCc4cn(CCCCCCC(=O)NO)nn4)cc13)-c1cc3c(c(=O)n1C2)COC(=O)[C@]3(O)CC	7.44
CC[C@@]1(O)C(=O)OCc2c1cc1n(c2=O)Cc2cc3cc(OCc4cn(CCCCC(=O)NO)nn4)ccc3nc2-1	6.59
CC[C@@]1(O)C(=O)OCc2c1cc1n(c2=O)Cc2cc3cc(OCc4cn(CCCCCCC(=O)NO)nn4)ccc3nc2-1	7.09
CCc1c2c(nc3ccc(OCc4cn(CCCCCCCC(=O)NO)nn4)cc13)-c1cc3c(c(=O)n1C2)COC(=O)[C@]3(O)CC	7.12
CCc1c2c(nc3ccc(OCc4cn(CCCCCC(=O)NO)nn4)cc13)-c1cc3c(c(=O)n1C2)COC(=O)[C@]3(O)CC	7.38
CCc1c2c(nc3ccc(OCc4cn(CCCC(=O)NO)nn4)cc13)-c1cc3c(c(=O)n1C2)COC(=O)[C@]3(O)CC	7.07
